Counter-ions that a name gives are not always drawn.
This document collects IC50 values reported for mGluR5 receptor (Sus scrofa, UniProt I3LUI7).
measure.name: IC50 (nM)

a. CN(c1c(-c2ccc(C#Cc3ccccn3)s2)nc2cnccn12)C(C)(C)C
b. C(#Cc1ccc(-c2nc3cnccn3c2NCc2ccccc2)s1)c1ccccc1
c. CC(C)(C)Nc1c(-c2ccc(C#Cc3cncc(C#N)c3)s2)nc2cnccn12 [Example 172, hydrochloride]
d. CC(C)(C)Nc1c(-c2ccc(C#Cc3ccc(O)cc3)s2)nc2cnccn12 [Example 121, hydrochloride]
e. COC(=O)c1nccn2c(NC(C)(C)C)c(-c3ccc(C#Cc4ccccc4)s3)nc12
[in] Going from lowest to highest recorded IC50, rank the entries listed above. Returns: the labels listed in the requested order.
[out] a, c, e, b, d
